System: Vero E6 infected with SARS-CoV-2
Test: inhibition of SARS-CoV-2 cytopathic effect; higher = more antiviral protection, active = above 15
Details: 1 nM; 48 h
# Lookup of reported inhibition of SARS-CoV-2 cytopathic effect keyed by entry

Example results:
{"columns": ["mol", "reading"],
 "data": [
  ["N[C@@H](C(=O)O)[C@@H](OCc1ccccc1)C(=O)O.N[C@H](C(=O)O)[C@H](OCc1ccccc1)C(=O)O", "-0.96% (inactive)"],
  ["COc1ccc(S(=O)(=O)N2CCCN(S(=O)(=O)c3ccc(OC)c(OC)c3)CC2)cc1OC", "-2.26% (inactive)"],
  ["COc1ccc([C@@H]2CC(=O)c3c(O)cc(O[C@@H]4O[C@H](CO[C@@H]5O[C@@H](C)[C@H](O)[C@@H](O)[C@H]5O)[C@@H](O)[C@H](O)[C@H]4O)cc3O2)cc1O", "1.23% (inactive)"]
]}

GET inhibition of SARS-CoV-2 cytopathic effect where system = Vero E6 infected with SARS-CoV-2 and item = `Cc1ccc(F)c(NC(=O)Nc2ccc(-c3cccc4[nH]nc(N)c34)cc2)c1` -2.72% (inactive)

Report the value of inhibition of SARS-CoV-2 cytopathic effect obtained on Vero E6 infected with SARS-CoV-2 for `C/C=C/C[C@@H](C)C(=O)[C@H]1C(=O)N[C@@H](C(C)C)C(=O)N(C)CC(=O)N(C)[C@@H](CC(C)C)C(=O)N[C@@H](C(C)C)C(=O)N(C)[C@@H](CC(C)C)C(=O)N[C@@H](C)C(=O)N[C@H](C)C(=O)N(C)[C@@H](CC(C)C)C(=O)N(C)[C@@H](CC(C)C)C(=O)N(C)[C@@H](C(C)C)C(=O)N1C` . -5.19% (inactive)
